Values compiled from patent US20240108738A1.

EXPERIMENTAL SYSTEM: T1, Human NKp46 Fc tag (Acro Biosystems, NC1-H5257) (human, UniProt O76036 22-255)
T1 construct: bought; also called Fc-tagged human NKp46
T1 sequence (O76036 22-255 limits assumed): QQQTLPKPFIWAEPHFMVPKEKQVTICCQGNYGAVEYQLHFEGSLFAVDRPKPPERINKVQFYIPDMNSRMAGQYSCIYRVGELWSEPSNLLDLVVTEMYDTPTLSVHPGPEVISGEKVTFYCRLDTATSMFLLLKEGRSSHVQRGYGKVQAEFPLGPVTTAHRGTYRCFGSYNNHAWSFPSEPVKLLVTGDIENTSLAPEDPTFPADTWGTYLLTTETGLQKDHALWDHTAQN
TEST: SPR Method 1 and/or 2
Numbered stars: 1 amine (or outer) side, 2 acyl side, 3 side chain; on linkers, the order of the positions; unused ones are H or OH. Bridge positions count the residues as written; N and C are the ends. Square brackets hold non-standard residues; d marks the D form. Ends that are not written are not given here. * marks the point of attachment. TATA = O=C(CC[*:1])N1CN(C(=O)CC[*:2])CN(C(=O)CC[*:3])C1; Trp(6-F) = N[C@@H](Cc1c[nH]c2cc(F)ccc12)C(=O)O; 1Nal = N[C@@H](Cc1cccc2ccccc12)C(=O)O; Cba = N[C@@H](CC1CCC1)C(=O)O; Tle = CC(C)(C)[C@H](N)C(=O)O; Pent4ynoyl = C#CCCC(=O)*; GABA = NCCCC(=O)O; Sar = CNCC(=O)O
RESULT TYPE: Kd (nM)

* ACNLQNPCMKFPCAK(Pent4ynoyl)-NH2 (linker 2-8-13 via TATA (inferred), scaffold TATA) [BCY18004] | 414
* ACDLTTHNCQ[1Nal]GICA-NH2 (linker 2-9-14 via TATA; N-terminus assumed; SMILES CC[C@H](C)[C@@H]1NC(=O)CNC(=O)[C@H](Cc2cccc3ccccc23)NC(=O)[C@H](CCC(N)=O)NC(=O)[C@@H]2CSCCC(=O)N3CN(CN(C3)C(=O)CCSC[C@@H](C(=O)N[C@@H](C)C(N)=O)NC1=O)C(=O)CCSC[C@H](NC(=O)[C@H](C)N)C(=O)N[C@@H](CC(=O)O)C(=O)N[C@@H](CC(C)C)C(=O)N[C@@H]([C@@H](C)O)C(=O)N[C@@H]([C@@H](C)O)C(=O)N[C@@H](Cc1c[nH]cn1)C(=O)N[C@@H](CC(N)=O)C(=O)N2, scaffold TATA) [BCY18287] | 637
* ACYLPDYLCGDEYCA-NH2 (linker 2-9-14 via TATA; also: scaffold: TATA, TATB or TBMT, scaffold TATA) [BCY18470] | 22
* ACDLTTHNCLWGVCA-NH2 (linker 2-9-14 via TATA; also: scaffold TATA, TATB or TBMT, scaffold TATA) [BCY15108] | 642
* ACYLPK(Pent4ynoyl)YLCGDEYCA-NH2 (linker 2-9-14 via TATA; N-terminus assumed; SMILES C#CCCC(=O)NCCCC[C@@H]1NC(=O)[C@@H]2CCCN2C(=O)[C@H](CC(C)C)NC(=O)[C@H](Cc2ccc(O)cc2)NC(=O)[C@@H](NC(=O)[C@H](C)N)CSCCC(=O)N2CN3CN(C2)C(=O)CCSC[C@@H](C(=O)N[C@@H](C)C(N)=O)NC(=O)[C@H](Cc2ccc(O)cc2)NC(=O)[C@H](CCC(=O)O)NC(=O)[C@H](CC(=O)O)NC(=O)CNC(=O)[C@H](CSCCC3=O)NC(=O)[C@H](CC(C)C)NC(=O)[C@H](Cc2ccc(O)cc2)NC1=O, scaffold TATA) [BCY16837] | 42
* ACY[Cba]PDYLCGDEYCA-NH2 (linker 2-9-14 via TATA; N-terminus assumed; SMILES CC(C)C[C@@H]1NC(=O)[C@H](Cc2ccc(O)cc2)NC(=O)[C@H](CC(=O)O)NC(=O)[C@@H]2CCCN2C(=O)[C@H](CC2CCC2)NC(=O)[C@H](Cc2ccc(O)cc2)NC(=O)[C@@H](NC(=O)[C@H](C)N)CSCCC(=O)N2CN3CN(C2)C(=O)CCSC[C@@H](C(=O)N[C@@H](C)C(N)=O)NC(=O)[C@H](Cc2ccc(O)cc2)NC(=O)[C@H](CCC(=O)O)NC(=O)[C@H](CC(=O)O)NC(=O)CNC(=O)[C@H](CSCCC3=O)NC1=O, scaffold TATA) [BCY15639] | 11
* ACNLQAPCMLTGK[Tle]CA-NH2 (linker 2-8-15 via TATA, scaffold TATA) [BCY18325] | 854
* ACNLQA[Sar]CMLTGKVCA-NH2 (linker 2-8-15 via TATA; N-terminus assumed; SMILES CSCC[C@@H]1NC(=O)[C@@H]2CSCCC(=O)N3CN(CN(C3)C(=O)CCSC[C@@H](C(=O)N[C@@H](C)C(N)=O)NC(=O)[C@H](C(C)C)NC(=O)[C@H](CCCCN)NC(=O)CNC(=O)[C@H]([C@@H](C)O)NC(=O)[C@H](CC(C)C)NC1=O)C(=O)CCSC[C@H](NC(=O)[C@H](C)N)C(=O)N[C@@H](CC(N)=O)C(=O)N[C@@H](CC(C)C)C(=O)N[C@@H](CCC(N)=O)C(=O)N[C@@H](C)C(=O)N(C)CC(=O)N2, scaffold TATA) [BCY18309] | 2570
* [GABA]CNLQAPCMLTGKVCA-NH2 (linker 2-8-15 via TATA, scaffold TATA) [BCY19699] | 2610
* Ac-ACNLQAPCMLTGKVCA-NH2 (linker 2-8-15 via TATA (inferred), scaffold TATA) [BCY18294] | 3260
* ACDLTTHNCQ[Trp(6-F)]GICA-NH2 (linker 2-9-14 via TATA, scaffold TATA) [BCY19724] | 1390
* ACNLQAPCMLTAKVCA-NH2 (linker 2-8-15 via TATA; also: scaffold TATA, TATB or TBMT, scaffold TATA) [BCY18303] | 2750
